Listed next: entries and their corresponding PBM E-score.
# target under test: Hmlalpha2 (UniProt P0CY09)
# Sequence: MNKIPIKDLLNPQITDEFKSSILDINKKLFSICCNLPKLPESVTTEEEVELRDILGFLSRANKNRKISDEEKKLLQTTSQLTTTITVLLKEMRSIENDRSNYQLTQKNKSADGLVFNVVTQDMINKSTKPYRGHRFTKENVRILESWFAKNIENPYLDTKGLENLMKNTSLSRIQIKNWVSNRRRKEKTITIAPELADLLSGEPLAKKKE
# assay details: PBM E-score (8-mer binding enrichment) (E-score (-0.5 to 0.5)); higher = stronger / more preferred TF binding
# measurement context: protein concentration: 200 nM; construct: GST-full length
In all, about 33,000 sequences were measured (“E-score (-0.5 to 0.5)”: median about -0.04, highest 2% from about 0.36 on). The full list was thinned out, with the highest values kept by preference.
// no unit string in output, number only

1. TTCATGAA = -0.00198
2. CAATTACC = 0.0295
3. CAAGTAGG = -0.0322
4. CATGTAGC = 0.344
5. ACGTAGAT = 0.267
6. AGTGTAGA = 0.171
7. GAATAACC = -0.0464
8. TAATTATA = 0.245
9. AGGAGAGG = -0.277
10. TCAGAACA = 0.196

// Input: ATCTTGTG . Output its PBM E-score only.
-0.0105

// Input: CAAGGTCA . Output its PBM E-score only.
-0.102

// Input: ACGTGTGA . Output its PBM E-score only.
0.229

// Input: AGGTAAAA . Output its PBM E-score only.
0.16

// Input: GGAAAAAC . Output its PBM E-score only.
0.0566

// Input: CTGCAAAG . Output its PBM E-score only.
-0.0914

// Input: GCTCCAGA . Output its PBM E-score only.
-0.207

// Input: GTGCTCAA . Output its PBM E-score only.
0.197

// Input: TCGCTTAA . Output its PBM E-score only.
0.0673

// Input: GCGATGAA . Output its PBM E-score only.
0.0458

// Input: CATGTAGG . Output its PBM E-score only.
0.407

// Input: CCTGTAGA . Output its PBM E-score only.
0.0876

// Input: CAATTACA . Output its PBM E-score only.
0.445

// Input: TAATTTCA . Output its PBM E-score only.
0.182

// Input: ATGTCAAT . Output its PBM E-score only.
0.4

// Input: CAGTGTAC . Output its PBM E-score only.
0.154

// Input: TAATTAGA . Output its PBM E-score only.
0.167

// Input: GGGTAAAA . Output its PBM E-score only.
0.185

// Input: ACGCAAAC . Output its PBM E-score only.
0.125

// Input: TCACCTGA . Output its PBM E-score only.
-0.136

// Input: TAGTAAAA . Output its PBM E-score only.
0.306

// Input: AAGTAAAC . Output its PBM E-score only.
0.283

---

# target under test: Hmlalpha2 (UniProt P0CY09)
# Sequence: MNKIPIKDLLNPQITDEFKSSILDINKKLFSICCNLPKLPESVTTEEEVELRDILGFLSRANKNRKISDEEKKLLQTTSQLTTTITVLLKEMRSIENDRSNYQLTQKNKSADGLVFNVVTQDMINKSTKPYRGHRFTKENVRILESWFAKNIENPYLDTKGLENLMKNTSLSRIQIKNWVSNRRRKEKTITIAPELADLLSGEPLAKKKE
# assay details: PBM E-score (8-mer binding enrichment) (E-score (-0.5 to 0.5)); higher = stronger / more preferred TF binding
# measurement context: protein concentration: 200 nM; construct: GST-full length
Whole data set: some 33,000 sequences, median “E-score (-0.5 to 0.5)” near -0.04, cut for the highest 2% near 0.36. What follows is part of a selection rich in the highest values, with near analogues and random picks from the rest.
Listed next: entries and their corresponding PBM E-score.
// no unit string in output, number only

Here are 2 sequences together with their reported answers.
1) AAACCGAG = -0.204
2) GGTTTACA = 0.396

Turning to the following sequence.
Supply PBM E-score measured with Hmlalpha2 (UniProt P0CY09) for CGTTTACC .
0.0999

---

# target under test: Hmlalpha2 (UniProt P0CY09)
# Sequence: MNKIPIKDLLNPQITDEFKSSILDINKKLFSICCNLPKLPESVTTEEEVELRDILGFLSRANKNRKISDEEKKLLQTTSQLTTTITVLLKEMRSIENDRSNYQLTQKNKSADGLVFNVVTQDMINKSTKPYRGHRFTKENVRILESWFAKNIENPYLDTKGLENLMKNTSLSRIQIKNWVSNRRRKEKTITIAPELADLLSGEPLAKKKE
# assay details: PBM E-score (8-mer binding enrichment) (E-score (-0.5 to 0.5)); higher = stronger / more preferred TF binding
# measurement context: protein concentration: 200 nM; construct: GST-full length
The full ranking holds about 33,000 sequences; the median of “E-score (-0.5 to 0.5)” is about -0.04, and the highest 2% start at about 0.36. The list comes from a sample in which the highest values are over-represented; it also holds close analogues and randomly drawn sequences.
PBM E-score below 0.2 gives label 0; PBM E-score at or above it gives label 1.

Solved entries:
1) AACACAAG = label 1
2) CACACCGC = label 0
3) CAACACAA = label 1
4) AGGATATG = label 0
5) AAACGACA = label 1
6) TACACGTA = label 1
7) CCACACGG = label 0
8) TAACACGA = label 1

Is it the case that CAATCGGC has PBM E-score reaching or exceeding 0.2?
label 0

Is it the case that GCACGGAC has PBM E-score reaching or exceeding 0.2?
label 0

Is it the case that AACACAGC has PBM E-score reaching or exceeding 0.2?
label 1

Is it the case that GGCTCTTA has PBM E-score reaching or exceeding 0.2?
label 0

Is it the case that AATTACCA has PBM E-score reaching or exceeding 0.2?
label 1

Is it the case that AGCGGGGA has PBM E-score reaching or exceeding 0.2?
label 0

Is it the case that AAGCCCTA has PBM E-score reaching or exceeding 0.2?
label 0

Is it the case that CAGGGGCG has PBM E-score reaching or exceeding 0.2?
label 0

---

# target under test: Hmlalpha2 (UniProt P0CY09)
# Sequence: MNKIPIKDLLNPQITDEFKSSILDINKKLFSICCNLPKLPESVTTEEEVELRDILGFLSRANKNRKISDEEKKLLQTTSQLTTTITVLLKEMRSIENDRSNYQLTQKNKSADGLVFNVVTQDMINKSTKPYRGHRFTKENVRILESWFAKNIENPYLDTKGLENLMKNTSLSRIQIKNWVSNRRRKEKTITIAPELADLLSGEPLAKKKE
# assay details: PBM E-score (8-mer binding enrichment) (E-score (-0.5 to 0.5)); higher = stronger / more preferred TF binding
# measurement context: protein concentration: 200 nM; construct: GST-full length
In all, about 33,000 sequences were measured (“E-score (-0.5 to 0.5)”: median about -0.04, highest 2% from about 0.36 on). The sample as a whole holds a higher share of the highest values than the screen did.
# binning rule on PBM E-score: low bracket: < 0.02; middle bracket: ≥ 0.02 and < 0.2; high bracket: ≥ 0.2

1. CTGCACAC = middle bracket
2. GAAATAGC = low bracket
3. AGCCACCC = low bracket
4. CAACGGTC = low bracket
5. AGTATGCG = middle bracket

For GATACACA , which PBM E-score bin applies?
high bracket

---

# target under test: Hmlalpha2 (UniProt P0CY09)
# Sequence: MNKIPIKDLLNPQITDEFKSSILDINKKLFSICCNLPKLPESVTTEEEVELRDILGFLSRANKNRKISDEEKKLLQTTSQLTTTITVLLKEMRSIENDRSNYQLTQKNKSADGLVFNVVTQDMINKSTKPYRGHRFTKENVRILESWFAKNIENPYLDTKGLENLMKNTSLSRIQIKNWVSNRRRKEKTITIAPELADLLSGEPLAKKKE
# assay details: PBM E-score (8-mer binding enrichment) (E-score (-0.5 to 0.5)); higher = stronger / more preferred TF binding
# measurement context: protein concentration: 200 nM; construct: GST-full length
The full ranking holds about 33,000 sequences; the median of “E-score (-0.5 to 0.5)” is about -0.04, and the highest 2% start at about 0.36. This excerpt belongs to a sample that is enriched for the highest values.
PBM E-score below 0.01 gives Not met; PBM E-score at or above it gives Met.

Solved entries:
1) GTCAAGTA = Met
2) CGGTAGAA = Not met
3) GCTGTGAA = Met
4) ATCTACTA = Met
5) TAGGCGGA = Met
6) AAGTGTAA = Met
7) CTGTGTCA = Met
8) CCCTACAC = Met

Is it the case that CGTCCATA has PBM E-score reaching or exceeding 0.01?
Met

Is it the case that AGGTTGGG has PBM E-score reaching or exceeding 0.01?
Not met

Is it the case that CAAGGGTC has PBM E-score reaching or exceeding 0.01?
Not met

Is it the case that ACTGTGTG has PBM E-score reaching or exceeding 0.01?
Met

Is it the case that GATTACGC has PBM E-score reaching or exceeding 0.01?
Met

Is it the case that ATGTGTGC has PBM E-score reaching or exceeding 0.01?
Not met

Is it the case that ACCCCCGA has PBM E-score reaching or exceeding 0.01?
Not met

Is it the case that GAGGTCTA has PBM E-score reaching or exceeding 0.01?
Not met

Is it the case that AACATGCC has PBM E-score reaching or exceeding 0.01?
Met

Is it the case that GAGGAGAA has PBM E-score reaching or exceeding 0.01?
Not met

Is it the case that CTCTACAC has PBM E-score reaching or exceeding 0.01?
Met

Is it the case that GAACATAA has PBM E-score reaching or exceeding 0.01?
Met

Is it the case that GGGTGTAA has PBM E-score reaching or exceeding 0.01?
Met

Is it the case that ATGAGGTA has PBM E-score reaching or exceeding 0.01?
Met

Is it the case that ATATTCTG has PBM E-score reaching or exceeding 0.01?
Not met

Is it the case that ACAAGCCT has PBM E-score reaching or exceeding 0.01?
Met

Is it the case that ATGTCGGA has PBM E-score reaching or exceeding 0.01?
Met

Origin of the recorded values: the supplement of paper PMC3334620
